Molecular target: ΔF508-CFTR (Homo sapiens, UniProt P13569, DEL508-508)
Construct: host or cells: CFBE41o-, doxycycline-inducible
Sequence (P13569 with tags, fused parts or gaps DEL508-508): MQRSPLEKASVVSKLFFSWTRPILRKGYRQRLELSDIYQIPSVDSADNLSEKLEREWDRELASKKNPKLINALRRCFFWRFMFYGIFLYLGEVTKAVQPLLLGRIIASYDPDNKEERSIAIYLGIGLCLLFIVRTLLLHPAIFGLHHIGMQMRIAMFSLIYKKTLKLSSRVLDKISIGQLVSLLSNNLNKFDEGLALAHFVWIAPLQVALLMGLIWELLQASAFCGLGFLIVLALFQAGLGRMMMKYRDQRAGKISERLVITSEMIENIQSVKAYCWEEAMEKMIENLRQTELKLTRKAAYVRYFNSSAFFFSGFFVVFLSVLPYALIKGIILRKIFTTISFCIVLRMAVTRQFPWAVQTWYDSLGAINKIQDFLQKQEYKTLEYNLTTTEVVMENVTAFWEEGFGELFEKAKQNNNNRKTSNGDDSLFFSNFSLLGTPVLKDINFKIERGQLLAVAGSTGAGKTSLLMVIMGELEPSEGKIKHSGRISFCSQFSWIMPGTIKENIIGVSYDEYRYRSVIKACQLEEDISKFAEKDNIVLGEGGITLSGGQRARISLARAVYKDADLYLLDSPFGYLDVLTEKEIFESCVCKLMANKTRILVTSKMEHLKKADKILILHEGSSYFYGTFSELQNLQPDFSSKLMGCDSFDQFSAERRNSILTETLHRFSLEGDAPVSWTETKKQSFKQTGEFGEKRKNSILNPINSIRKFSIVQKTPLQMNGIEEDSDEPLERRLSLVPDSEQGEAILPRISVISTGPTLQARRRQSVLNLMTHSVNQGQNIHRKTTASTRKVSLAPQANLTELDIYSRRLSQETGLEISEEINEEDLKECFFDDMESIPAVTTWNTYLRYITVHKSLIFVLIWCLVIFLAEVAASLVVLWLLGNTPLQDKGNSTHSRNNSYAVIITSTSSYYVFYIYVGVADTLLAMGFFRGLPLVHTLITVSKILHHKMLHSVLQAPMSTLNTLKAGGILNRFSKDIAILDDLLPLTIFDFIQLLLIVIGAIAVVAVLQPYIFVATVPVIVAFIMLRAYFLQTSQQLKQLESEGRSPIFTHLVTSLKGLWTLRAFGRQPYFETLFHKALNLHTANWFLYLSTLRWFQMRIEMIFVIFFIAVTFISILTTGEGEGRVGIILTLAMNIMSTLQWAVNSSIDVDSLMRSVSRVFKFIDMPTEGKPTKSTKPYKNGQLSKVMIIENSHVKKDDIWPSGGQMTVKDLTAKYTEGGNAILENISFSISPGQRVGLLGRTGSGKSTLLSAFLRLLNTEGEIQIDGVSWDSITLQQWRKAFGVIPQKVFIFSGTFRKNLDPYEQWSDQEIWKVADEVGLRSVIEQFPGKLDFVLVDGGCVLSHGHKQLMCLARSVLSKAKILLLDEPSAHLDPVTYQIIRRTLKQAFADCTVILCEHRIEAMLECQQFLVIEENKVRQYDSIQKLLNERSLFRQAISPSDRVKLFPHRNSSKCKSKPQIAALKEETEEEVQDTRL
Test: CFTR cell surface levels using HRP-tagged ΔF508-CFTR expressing CFBE cells, intrinsic corrector capacity
Assay type: cell-based
Conditions: HRP-tagged ΔF508-CFTR expressing CFBE41o- cells; compound alone (intrinsic corrector capacity); 20 hours at 33° C.; read-out: EC50
measuredQuantity: pEC50
pEC50 field: float, defined as -log10 of concentration (mol/L).

See these solved cases before continuing.
[[record]]
compound = "O=C(NS(=O)(=O)C1COC1)c1cc(N2CCC(N3CCOCC3)CC2)c2c(C3CCC3)nn(-c3ccc(F)cc3)c2n1"
recordednumber = 5.48

[[record]]
compound = "CS(=O)(=O)NC(=O)c1cc(N2CCC(OC3CCCC3)CC2)c2c(C3CCC3)nn(-c3ccccc3)c2n1"
recordednumber = 6.31


Ask: What value of measured pEC50 is listed for COCC1CN(c2cc(C(=O)NS(C)(=O)=O)nc3c2c(C2CCC2)nn3-c2ccccc2)C1 ?
Result: 5.97

Ask: Which pEC50 value belongs to CC(C)c1nn(-c2ccnc(N3CCOCC3)c2)c2nc(C(=O)NS(C)(=O)=O)cc(OCC3CCOCC3)c12 ?
Result: 6.38

Ask: Which measured pEC50 value corresponds to COCCS(=O)(=O)NC(=O)c1cc(OCC2CCOCC2)c2c(C3CCC3)nn(-c3ccccc3)c2n1 ?
Result: 6.66

Ask: Fill blank: measured pEC50 of the compound C[C@@H](C1CCN(c2cc(C(=O)NS(=O)(=O)N(C)C)nc3c2c(C2CCC2)nn3-c2ccc(F)cc2)CC1)N1CCOCC1 is ____.
Result: 6.87

Ask: Can you share its pEC50? I mean this compound: CC(C)c1nn(C2CCCCC2)c2nc(C(=O)NS(C)(=O)=O)cc(-c3ccc(N4CCC(F)(F)C4)nc3)c12
Result: 6.03

###

Molecular target: ΔF508-CFTR (Homo sapiens, UniProt P13569, DEL508-508)
Construct: host or cells: CFBE41o-, doxycycline-inducible
Assay: CFTR cell surface levels using HRP-tagged ΔF508-CFTR expressing CFBE cells, intrinsic corrector capacity
Format: cell-based
Design: concentration or dose not given beside the values
Conditions: HRP-tagged ΔF508-CFTR expressing CFBE41o- cells; compound alone (intrinsic corrector capacity); 20 hours at 33° C.
Listed next: entries and their corresponding % Activation.
Record the value in %, omitting the unit from your answer.

Answered examples (5):
[[record]]
molecule = "CC(C1CCN(c2cc(C(=O)NS(C)(=O)=O)nc3c2c(C2CCC2)nn3-c2ccc(F)cc2)CC1)N1CCOCC1 (centres unmarked)"
measuredquantity = "% Activation"
recordednumber = 393.1

[[record]]
molecule = "COCC1CCN(c2cc(C(=O)NS(=O)(=O)CC(C)C)nc3c2c(C2CCC2)nn3-c2ccccc2)CC1"
measuredquantity = "% Activation"
recordednumber = 321.6

[[record]]
molecule = "CC1(S(=O)(=O)NC(=O)c2cc(N3CCC(N4CCOCC4)CC3)c3c(C4CCC4)nn(-c4ccc(F)cc4)c3n2)CC1"
measuredquantity = "% Activation"
recordednumber = 217.5

[[record]]
molecule = "CCS(=O)(=O)NC(=O)c1cc(N2CCCC(OC)C2)c2c(C(C)C)nn(-c3cccc(C)c3)c2n1 (centres unmarked)"
measuredquantity = "% Activation"
recordednumber = 175.4

[[record]]
molecule = "CS(=O)(=O)NC(=O)c1cc(N2CCC(N3CCCCC3)CC2)c2c(C3CCC3)nn(-c3ccccc3)c2n1"
measuredquantity = "% Activation"
recordednumber = 313


With those in mind, consider the next molecule.
Ask: Find the recorded % Activation belonging to COCC1CCN(c2cc(C(=O)NS(C)(=O)=O)nc3c2c(C2CCC2)nn3-c2ccnc(C3CCOCC3)c2)CC1 and report it.
Result: 166.3

###

Biological target: ΔF508-CFTR (Homo sapiens, UniProt P13569, DEL508-508)
Construct: host or cells: CFBE41o-, doxycycline-inducible
Assay: CFTR cell surface levels using HRP-tagged ΔF508-CFTR expressing CFBE cells, in the presence of a co-corrector
Format: cell-based
Details: HRP-tagged ΔF508-CFTR CFBE cells, in the presence of 3 μM co-corrector
measuredQuantity: % Activation (%)
Report the value in % with no unit label.

Below, 3 molecules whose answers are already recorded.
[[record]]
molecule = "O=C(NS(=O)(=O)C1CC1)c1cc(N2CCC(N3CCN(C4CC4)CC3)CC2)c2c(C3CCC3)nn(-c3ccccc3)c2n1 [Compound 550]"
measuredquantity = "% Activation"
recordednumber = 605.45

[[record]]
molecule = "CN(C)S(=O)(=O)NC(=O)c1cc(N2CCC(N3CCOCC3)CC2)c2c(C3CCC3)nn(-c3ccc(C(F)(F)F)cc3)c2n1 [Compound 500]"
measuredquantity = "% Activation"
recordednumber = 330.05

[[record]]
molecule = "COC1CCN(c2cc(C(=O)NS(C)(=O)=O)nc3c2c(C(C)C)nn3-c2ccc(F)cc2)CC1 [Compound 167]"
measuredquantity = "% Activation"
recordednumber = 429.4


Ask: For the molecule CS(=O)(=O)NC(=O)c1cc(-c2ccc(N3CCC(C#N)CC3)nc2)c2c(C3CCC3)nn(C3CCCCC3)c2n1 [Compound 104] , what % Activation is on record?
Result: 411.33

###

Target: CFTR ΔF508 (Homo sapiens, UniProt P13569, DEL508-508)
Construct: bronchial epithelial cells isolated from CF patients homozygous for the CFTR ΔF508 mutation; McGill University; Asterand; University of North Carolina hAEC-CF; host or cells: primary human bronchial epithelial cells from CF patients homozygous for ΔF508, differentiated at air-liquid interface
Sequence (P13569 with tags, fused parts or gaps DEL508-508): as above
Assay: Chronic TECC assay, primary bronchial epithelial cells of CF patients homozygous for CFTR ΔF508 (corrector, co-corrector and potentiator)
Assay type: cell-based
Settings: chronic TECC; test compound at 1 μM; Ieq = calculations based on the maximum current
measuredQuantity: % Activity at 1 μM (Ieq*) (%)
# output: bare number, implied unit %

In the examples that follow, each entry is paired with its recorded % Activity at 1 μM (Ieq*).
[[record]]
smilesstring = "COCCN(CCOC)c1ccc(-c2cc(C(=O)NS(C)(=O)=O)nc3c2c(C(C)C)nn3C2CCCCC2)cn1"
measurementtarget = "CFTR ΔF508 (Homo sapiens, UniProt P13569, DEL508-508)"
recordednumber = 206

[[record]]
smilesstring = "CC(C)c1nn(C2CCCCC2)c2nc(C(=O)NS(C)(=O)=O)cc(-c3ccc(N4CCC(C#N)CC4)cc3)c12"
measurementtarget = "CFTR ΔF508 (Homo sapiens, UniProt P13569, DEL508-508)"
recordednumber = 250

[[record]]
smilesstring = "COCCS(=O)(=O)NC(=O)c1cc(N2CCC(OC)CC2)c2c(C3CCC3)nn(-c3ccccc3)c2n1"
measurementtarget = "CFTR ΔF508 (Homo sapiens, UniProt P13569, DEL508-508)"
recordednumber = 310


Ask: Return reported % Activity at 1 μM (Ieq*); argument: CC(C)c1nn(-c2cccc(N3CCOCC3)n2)c2nc(C(=O)NS(C)(=O)=O)cc(-c3ccc(N4CCOCC4)cc3)c12
Result: 235

###

Target: ΔF508-CFTR (Homo sapiens, UniProt P13569, DEL508-508)
Construct: host or cells: CFBE41o-, doxycycline-inducible
Experiment: CFTR cell surface levels using HRP-tagged ΔF508-CFTR expressing CFBE cells, in the presence of a co-corrector
Format: cell-based
Conditions: HRP-tagged ΔF508-CFTR CFBE cells, in the presence of 3 μM co-corrector; read-out: EC50
Below, each of the compounds is paired with its reported pEC50 value.
// scale note: pEC50 = -log10(conc_M); give the bare number

[[record]]
compound = "CC(C)c1nn(-c2ccccc2)c2nc(C(=O)NS(C)(=O)=O)cc(-c3ccc(N(C)C)cc3)c12 [Compound 7]"
measuredquantity = "pEC50"
recordednumber = 6.26


Ask: Please look up its pEC50: CCS(=O)(=O)NC(=O)c1cc(-c2ccc(N3CCOCC3)nc2)c2c(C(C)C)nn(-c3cccc(N(C)C)c3)c2n1 [Compound 54]
Result: 6.33

Ask: Entry under review: O=C(c1cc(N2CCC(CN3CCCC3)CC2)c2c(C3CCC3)nn(-c3ccccc3)c2n1)N1CCCCS1(=O)=O [Compound 663] . Reported pEC50?
Result: 6.99

Ask: Given the entry CCS(=O)(=O)N(C)C(=O)c1cc(N2CCC(CN3CCCC3)CC2)c2c(C3CCC3)nn(-c3ccccc3)c2n1 [Compound 659] , report its measured pEC50.
Result: 6.88

###

Overview of reported EC50 across a group of compounds:
Biological target: ΔF508-CFTR (Homo sapiens, UniProt P13569, DEL508-508)
Construct: host or cells: CFBE41o-, doxycycline-inducible
Assay: CFTR cell surface levels using HRP-tagged ΔF508-CFTR expressing CFBE cells, intrinsic corrector capacity
Assay type: cell-based
Settings: HRP-tagged ΔF508-CFTR expressing CFBE41o- cells; compound alone (intrinsic corrector capacity); 20 hours at 33° C.; read-out: EC50
Number only, in nM; omit the unit.

[[record]]
compound = "COC1CCCN(c2cc(C(=O)NS(C)(=O)=O)nc3c2c(C(C)C)nn3-c2cccc(C)c2)C1 (centres unmarked) [Compound 162]"
measuredquantity = "EC50"
recordednumber = 445

[[record]]
compound = "CCS(=O)(=O)NC(=O)c1cc(-c2ccc(N(C)C)nc2)c2c(C(C)C)nn(C3CCCC3)c2n1 [Compound 56]"
measuredquantity = "EC50"
recordednumber = 1180

[[record]]
compound = "CS(=O)(=O)NC(=O)c1cc(OC[C@H](F)C2CCOCC2)c2c(C3CCC3)nn(-c3ccccc3)c2n1 [Compound 237]"
measuredquantity = "EC50"
recordednumber = 453

[[record]]
compound = "CS(=O)(=O)NC(=O)c1cc(N2CCC(N3CCN(C4CC4)CC3)CC2)c2c(C3CCC3)nn(-c3ccccc3)c2n1 [Compound 556]"
measuredquantity = "EC50"
recordednumber = 64.7

[[record]]
compound = "CC(C)c1nn(-c2ccnc(N3CCCC3)c2)c2nc(C(=O)NS(C)(=O)=O)cc(-c3ccc(N4CCC(C#N)CC4)cc3)c12 [Compound 169]"
measuredquantity = "EC50"
recordednumber = 426


Ask: I'd like to know its EC50. The compound in question is CN1CCCCC1CCOc1cc(C(=O)NS(C)(=O)=O)nc2c1c(C1CCC1)nn2-c1ccccc1 (centres unmarked) [Compound 323]
Result: 1370

Ask: Requested read-out: EC50. Entry: COCC1CCN(c2cc(C(=O)NS(=O)(=O)CC3COCCO3)nc3c2c(C2CCC2)nn3-c2ccccc2)CC1 (centres unmarked) [Compound 417]
Result: 190

Ask: Which value of EC50 has been reported for CCS(=O)(=O)NC(=O)c1cc(-c2ccc(N3CCOCC3)cc2)c2c(C)nn(-c3cccc(Cl)c3)c2n1 [Compound 66] in the records?
Result: 1860

Ask: Entry under review: COCC1CCN(c2cc(C(=O)NS(C)(=O)=O)nc3c2c(C2CCC2)nn3-c2ccnc(C)c2)CC1 [Compound 430] . Reported EC50?
Result: 231

Ask: // query EC50 value for entry CC(C)c1nn(C2CCCCC2)c2nc(C(=O)NS(C)(=O)=O)cc(-c3ccc(N4CCC(C)(C#N)CC4)nc3)c12 [Compound 98]
Result: 556

Ask: Field request: EC50 | item: CN(C)S(=O)(=O)NC(=O)c1cc(N2CCC(N3CCOCC3)CC2)c2c(C3CCC3)nn(-c3cccc(F)c3)c2n1 [Compound 512]
Result: 121

Ask: GET /values?readout=EC50&item= CC(C)Oc1nn(C2CCCCC2)c2nc(C(=O)NS(C)(=O)=O)cc(-c3ccc(CN4CC(N(C)C)C4)cc3)c12 [Compound 633]
Result: 345

Ask: // query EC50 value for entry O=C(NS(=O)(=O)C1CC1)c1cc(N2CCC(N3CCN(C4CC4)CC3)CC2)c2c(C3CCC3)nn(-c3ccccc3)c2n1 [Compound 550]
Result: 361

Ask: I would be grateful if you could share the reported EC50 for COC(=O)N1CCN(C2CCN(c3cc(C(=O)NS(=O)(=O)N(C)C)nc4c3c(C3CCC3)nn4-c3ccc(F)cc3)CC2)CC1 [Compound 492] .
Result: 79.9
